experiment: Half life in Sprague-Dawley rat; type: ADME, organism-based; details: in vivo
I'd be grateful if you could share measured log10(half-life) for these entries.
In plain terms, each number is the log10 of measured half-life in h.

Before answering, review these 2 worked examples.
{"columns": ["Molecule", "Measured"],
 "data": [
  ["C[C@H](c1ccc(N2CC[C@H](NS(=O)(=O)/C=C/c3ccc(Cl)s3)C2=O)c(F)c1)N(C)C", 0.11],
  ["C[C@H](c1ccc(N2CC[C@H](NS(=O)(=O)c3ccc4cc(Cl)ccc4c3)C2=O)c(F)c1)N(C)C", 0.41]
]}

Consider the following items and state reported log10(half-life) for each.
1. CN[C@@H](C)c1ccc(N2CC[C@H](NS(=O)(=O)c3ccc4cc(Cl)ccc4c3)C2=O)c(F)c1
2. C[C@@H](c1ccc(N2CC[C@H](NS(=O)(=O)c3ccc4cc(Cl)ccc4c3)C2=O)c(F)c1)N(C)C
3. CC(c1ccc(N2CC[C@H](NS(=O)(=O)c3cc4ccc(Cl)cc4s3)C2=O)c(F)c1)N(C)C (some centres not stated)
4. CN[C@H](C)c1ccc(N2CC[C@H](NS(=O)(=O)c3ccc4cc(Cl)ccc4c3)C2=O)c(F)c1

[1.18, 0.32, 0.49, 1.26]

For the molecule `C[C@@H](c1ccc(N2CC[C@H](NS(=O)(=O)/C=C/c3ccc(Cl)s3)C2=O)c(F)c1)N(C)C` , what log10(half-life) is on record?
0.20

---

I'd be grateful if you could share measured clearance for these entries.
assay: Plasma clearance in Sprague-Dawley rat; format: ADME, organism-based
One number for each entry, in L/h/kg.

{"columns": ["Molecule", "clearance [L/h/kg]"],
 "data": [
  ["CC(c1ccc(N2CC[C@H](NS(=O)(=O)c3cc4ccc(Cl)cc4s3)C2=O)c(F)c1)N(C)C (some centres not stated)", 0.126]
]}

Consider the following items and state reported clearance for each.
1. C[C@H](c1ccc(N2CC[C@H](NS(=O)(=O)/C=C/c3ccc(Cl)s3)C2=O)c(F)c1)N(C)C
2. C[C@@H](c1ccc(N2CC[C@H](NS(=O)(=O)/C=C/c3ccc(Cl)s3)C2=O)c(F)c1)N(C)C
3. CN[C@@H](C)c1ccc(N2CC[C@H](NS(=O)(=O)c3ccc4cc(Cl)ccc4c3)C2=O)c(F)c1
4. CN[C@H](C)c1ccc(N2CC[C@H](NS(=O)(=O)c3ccc4cc(Cl)ccc4c3)C2=O)c(F)c1

0.45
0.258
0.186
0.096

Consider the following items and state reported clearance for each.
1. C[C@H](c1ccc(N2CC[C@H](NS(=O)(=O)c3ccc4cc(Cl)ccc4c3)C2=O)c(F)c1)N(C)C
2. C[C@@H](c1ccc(N2CC[C@H](NS(=O)(=O)c3ccc4cc(Cl)ccc4c3)C2=O)c(F)c1)N(C)C

1: 0.48; 2: 0.78

---

I'd be grateful if you could share measured Vd for these entries.
experiment: Volume of distribution at steady state in Sprague-Dawley rat; format: ADME, organism-based; conditions: in vivo, read-out: Vdss
Answers are plain numbers, in L/kg.

Before answering, review these 6 worked examples.
{"columns": ["Compound", "Vd / L/kg"],
 "data": [
  ["C[C@@H](c1ccc(N2CC[C@H](NS(=O)(=O)/C=C/c3ccc(Cl)s3)C2=O)c(F)c1)N(C)C", 0.53],
  ["C[C@H](c1ccc(N2CC[C@H](NS(=O)(=O)/C=C/c3ccc(Cl)s3)C2=O)c(F)c1)N(C)C", 0.66],
  ["CN[C@H](C)c1ccc(N2CC[C@H](NS(=O)(=O)c3ccc4cc(Cl)ccc4c3)C2=O)c(F)c1", 2.4],
  ["CC(c1ccc(N2CC[C@H](NS(=O)(=O)c3cc4ccc(Cl)cc4s3)C2=O)c(F)c1)N(C)C (some centres not stated)", 0.52],
  ["C[C@H](c1ccc(N2CC[C@H](NS(=O)(=O)c3ccc4cc(Cl)ccc4c3)C2=O)c(F)c1)N(C)C", 1.3],
  ["CN[C@@H](C)c1ccc(N2CC[C@H](NS(=O)(=O)c3ccc4cc(Cl)ccc4c3)C2=O)c(F)c1", 3.3]
]}

Below: the item to evaluate.
For the compound `C[C@@H](c1ccc(N2CC[C@H](NS(=O)(=O)c3ccc4cc(Cl)ccc4c3)C2=O)c(F)c1)N(C)C` , what Vd is on record?
1.8
